system: Plasmodium falciparum; test: GSK_TCMDC: Inhibition of Plasmodium falciparum Dd2 in whole red blood cells, using parasite LDH activity as an index of growth. Test compounds present at 2uM; assay type: functional
Inhibition overview
Record the value in %, omitting the unit from your answer.

O=C(Cc1ccc[n+]([O-])c1)Nc1cccc(-c2cccc(-c3nc4cc(F)ccc4[nH]3)c2)c1 = 98
CC(C)CC(=O)N1CCNC[C@@H]1C(=O)NC1CC1.O=C(O)C(F)(F)F = 0
Cn1nc(-c2ccc(CNC3CCc4ccccc43)cc2)c2cnc(NCCCN3CCCC3)nc21 (centres undefined) = 22

Now for another entry.
Task item: Notebook entry, Plasmodium falciparum assay: Inhibition of O=C(O)C(=O)O.Oc1c(CN2CCC(Cc3ccccc3)CC2)cc(Cl)c2cccnc12 = ?
Reply: 94
